Target: SARS-CoV-2 S1-RBD fused to human Fc (S1-RBD-Fc) (SARS-CoV-2 Wuhan; human)
Assay: SPR, antigen on chip
MEASURED_PROPERTY: koff (s⁻¹)
Please give a number only; it is taken to be in s⁻¹.

1. NRCoV2-11 VHH (VHH) VHH: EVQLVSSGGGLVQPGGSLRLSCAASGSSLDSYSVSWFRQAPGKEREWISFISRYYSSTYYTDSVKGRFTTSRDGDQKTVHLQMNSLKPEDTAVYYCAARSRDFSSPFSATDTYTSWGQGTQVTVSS = 0.000226
2. NRCoV2-18 VHH (VHH) VHH: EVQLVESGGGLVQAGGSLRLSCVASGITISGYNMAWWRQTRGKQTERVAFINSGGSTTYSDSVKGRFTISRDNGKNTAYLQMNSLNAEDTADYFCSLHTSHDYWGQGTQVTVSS = 0.000197
3. NRCoV2-02 VHH (VHH) VHH: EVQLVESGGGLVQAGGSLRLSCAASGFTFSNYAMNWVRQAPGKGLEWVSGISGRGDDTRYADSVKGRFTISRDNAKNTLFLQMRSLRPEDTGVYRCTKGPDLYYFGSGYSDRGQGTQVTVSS = 0.00141

Moving on to another binder below.
Look up koff for this binder: NRCoV2-15 VHH (VHH) VHH: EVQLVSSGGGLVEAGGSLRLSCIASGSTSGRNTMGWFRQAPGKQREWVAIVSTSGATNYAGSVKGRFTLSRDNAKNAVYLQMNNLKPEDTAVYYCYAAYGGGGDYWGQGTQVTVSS
0.000233
